# system_tested: protein-protein interaction between Kras and SOS1 (biotin-tagged human Kras loaded with GDP, His-tagged human SOS1) (Homo sapiens (Human), UniProt P01116, G12D)
# protocol_details: Protein-protein interaction inhibition between Kras and SOS1 (KrasG12D-SOS PPI) using AlphaScreen
# Type: biochemical
# condition_parameters: AlphaScreen; biotin-tagged human Kras loaded with GDP, His-tagged human SOS1; read-out: KRAS G12D-SOS PPI IC50
Numbered stars: 1 amine (or outer) side, 2 acyl side, 3 side chain; on linkers, the order of the positions; unused ones are H or OH. Bridge positions count the residues as written; N and C are the ends. Square brackets hold non-standard residues; d marks the D form. Peptide text beside a SMILES is read from it. * marks the point of attachment. hPhe(3-Cl-4-CF3) = N[C@@H](CCc1ccc(C(F)(F)F)c(Cl)c1)C(=O)O; NMePhe(4-CF3) = CN[C@@H](Cc1ccc(C(F)(F)F)cc1)C(=O)O; NMedβ3hAla = C[C@H](CC(=O)[*:2])N(C)[*:1]; NMeGly(cPent) = CN[C@H](C(=O)O)C1CCCC1; NMeCha = CN[C@@H](CC1CCCCC1)C(=O)O; NMeE = CN[C@@H](CCC(=O)O)C(=O)O; NMeD = CN[C@@H](CC(=O)O)C(=O)O; NMeL = CN[C@@H](CC(C)C)C(=O)O; Morpholide = C1CN(*)CCO1; NMeA = CN[C@@H](C)C(=O)O; NMeAib = CNC(C)(C)C(=O)O; Piperidide = C1CCN(*)CC1; Ac5c = NC1(C(=O)O)CCCC1; Aze = O=C(O)[C@@H]1CCN1; Sar = CNCC(=O)O
observation_type: pIC50
Scale note: pIC50 = -log10(concentration in M).

{"columns": ["compound", "pIC50"],
 "data": [
  ["CC[C@H](C)[C@@H]1NC(=O)[C@H](C)N(C)C(=O)C[C@@H](C)N(C)C(=O)[C@H](CC(C)C)NC(=O)C(C)(C)N(C)C(=O)[C@H](CC(C)C)NC(=O)[C@H](CCc2ccc(C(F)(F)F)c(Cl)c2)NC(=O)CN(C)C(=O)[C@H](Cc2ccc(C(F)(F)F)cc2)N(C)C(=O)CN(C)C(=O)CN(C)C1=O [Compound 1397] (cyclo(I[Sar][Sar][NMePhe(4-CF3)][Sar][hPhe(3-Cl-4-CF3)]L[NMeAib]L[NMedβ3hAla][NMeA]))", 8.19]
]}

Shift focus to the following entry.
[ask] For CC[C@H](C)[C@@H]1NC(=O)[C@H](CC(C)C)N(C)C(=O)C[C@@H](C(=O)N2CCOCC2)N(C)C(=O)[C@H](C2CCCC2)N(C)C(=O)C2(CCCC2)NC(=O)[C@H](CCC(=O)N2CCCCC2)N(C)C(=O)[C@H](CCc2ccc(C(F)(F)F)c(Cl)c2)NC(=O)CN(C)C(=O)[C@H](CC2CCCCC2)N(C)C(=O)[C@@H]2CCN2C(=O)[C@H](C)N(C)C1=O [Compound 2112] ([NMeL]I[NMeA][Aze][NMeCha][Sar][hPhe(3-Cl-4-CF3)][NMeE](Piperidide)[Ac5c][NMeGly(cPent)][NMeD]-Morpholide; lactam N-11) , what is its reported pIC50?
[reply] 7.96

----------
The molecules listed here are annotated with their IC50.
# system_tested: protein-protein interaction between Kras and SOS1 (biotin-tagged human Kras loaded with GDP, His-tagged human SOS1) (Homo sapiens (Human), UniProt P01116, G12D)
# protocol_details: Protein-protein interaction inhibition between Kras and SOS1 (KrasG12D-SOS PPI) using AlphaScreen;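 further: kras produced in E. coli, Ni-coupled donor beads and streptavidin acceptor beads, excitation 680 nm with emission detected at 520–620 nm via singlet oxygen transfer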
# Type: biochemical
# condition_parameters: AlphaScreen; biotin-tagged human Kras loaded with GDP, His-tagged human SOS1; read-out: KRAS G12D-SOS PPI IC50
Bridge positions count the residues as written; N and C are the ends. Square brackets hold non-standard residues; d marks the D form. Peptide text beside a SMILES is read from it. * marks the point of attachment. hPhe(3-Cl-4-CF3) = N[C@@H](CCc1ccc(C(F)(F)F)c(Cl)c1)C(=O)O; hPhe(3-F,4-CF3) = N[C@@H](CCc1ccc(C(F)(F)F)c(F)c1)C(=O)O; 3Oxa8azabicyclo(3.2.1)octane = C1CC2COCC1N2*; NMeGly(cPent) = CN[C@H](C(=O)O)C1CCCC1; NMeI = CC[C@H](C)[C@H](NC)C(=O)O; NMeD = CN[C@@H](CC(=O)O)C(=O)O; NMeL = CN[C@@H](CC(C)C)C(=O)O; NMeS = CN[C@@H](CO)C(=O)O; NMeA = CN[C@@H](C)C(=O)O; Ac5c = NC1(C(=O)O)CCCC1; Aze = O=C(O)[C@@H]1CCN1; Sar = CNCC(=O)O; Propyl = CCC*
The answer is to be given in nM; state only the numeric part.

{"columns": ["molecule", "IC50 / nM"],
 "data": [
  ["CCCOC[C@H]1C(=O)N(C)CC(=O)N[C@@H](CCc2ccc(C(F)(F)F)c(Cl)c2)C(=O)N2CCC[C@H]2C(=O)NC2(CCCC2)C(=O)N(C)[C@@H](C2CCCC2)C(=O)N(C)[C@H](C(=O)N2C3CCC2COC3)CC(=O)N(C)[C@@H](CC(C)C)C(=O)N[C@@H]([C@@H](C)CC)C(=O)N[C@@H](C)C(=O)N2CC[C@H]2C(=O)N1C [Compound 1299] ([NMeL]IA[Aze][NMeS](Propyl)[Sar][hPhe(3-Cl-4-CF3)]P[Ac5c][NMeGly(cPent)][NMeD]-{3Oxa8azabicyclo(3.2.1)octane}; lactam N-11)", 3.6]
]}

Kindly review the next molecule as well.
[ask] State the recorded IC50 for this entry: CC[C@H](C)[C@@H]1NC(=O)[C@H](CC(C)C)N(C)C(=O)C[C@@H](C(=O)N(C)C)N(C)C(=O)[C@H]([C@@H](C)CC)N(C)C(=O)C2(CCCC2)NC(=O)[C@@H]2CCCN2C(=O)[C@H](CCc2ccc(C(F)(F)F)c(F)c2)NC(=O)CN(C)C(=O)[C@H](C2CCCC2)N(C)C(=O)[C@@H]2CCN2C(=O)[C@H](C)N(C)C1=O [Compound 555] ([NMeL]I[NMeA][Aze][NMeGly(cPent)][Sar][hPhe(3-F,4-CF3)]P[Ac5c][NMeI][NMeD]-NMe2; lactam N-11)
[reply] 2.6

The measurements presented in this section are drawn from patent US20240148821A1.
